Molecular target: IκBα ubiquitinating enzyme (SCF complex: ROC1, Cullin1, Skp1, His-TrCP1; with E1, UbcH5b) (Homo sapiens, UniProt P62877+P63208+Q13616+Q9Y297)
Construct: His (polyhistidine); made in house; host or cells: insect cells (baculovirus) for the SCF complex and His-E1; E. coli for His-UBCH5b
Sequence (Q9Y297 whole entry): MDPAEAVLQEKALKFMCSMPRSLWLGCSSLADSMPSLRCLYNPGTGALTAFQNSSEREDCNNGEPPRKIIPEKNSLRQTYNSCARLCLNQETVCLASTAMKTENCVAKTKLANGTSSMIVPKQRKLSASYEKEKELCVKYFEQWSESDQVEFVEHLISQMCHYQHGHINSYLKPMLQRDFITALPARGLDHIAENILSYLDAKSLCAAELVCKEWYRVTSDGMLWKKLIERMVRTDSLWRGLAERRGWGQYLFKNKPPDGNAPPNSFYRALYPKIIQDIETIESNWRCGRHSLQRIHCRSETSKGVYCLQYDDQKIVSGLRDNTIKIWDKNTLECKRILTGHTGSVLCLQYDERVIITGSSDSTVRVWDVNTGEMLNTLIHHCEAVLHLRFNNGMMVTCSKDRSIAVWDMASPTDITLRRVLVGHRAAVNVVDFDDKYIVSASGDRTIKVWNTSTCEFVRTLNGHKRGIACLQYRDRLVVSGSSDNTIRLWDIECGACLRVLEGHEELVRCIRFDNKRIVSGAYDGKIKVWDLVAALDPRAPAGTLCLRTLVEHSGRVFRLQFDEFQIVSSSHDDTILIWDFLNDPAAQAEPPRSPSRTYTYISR
Sequence (Q13616 whole entry): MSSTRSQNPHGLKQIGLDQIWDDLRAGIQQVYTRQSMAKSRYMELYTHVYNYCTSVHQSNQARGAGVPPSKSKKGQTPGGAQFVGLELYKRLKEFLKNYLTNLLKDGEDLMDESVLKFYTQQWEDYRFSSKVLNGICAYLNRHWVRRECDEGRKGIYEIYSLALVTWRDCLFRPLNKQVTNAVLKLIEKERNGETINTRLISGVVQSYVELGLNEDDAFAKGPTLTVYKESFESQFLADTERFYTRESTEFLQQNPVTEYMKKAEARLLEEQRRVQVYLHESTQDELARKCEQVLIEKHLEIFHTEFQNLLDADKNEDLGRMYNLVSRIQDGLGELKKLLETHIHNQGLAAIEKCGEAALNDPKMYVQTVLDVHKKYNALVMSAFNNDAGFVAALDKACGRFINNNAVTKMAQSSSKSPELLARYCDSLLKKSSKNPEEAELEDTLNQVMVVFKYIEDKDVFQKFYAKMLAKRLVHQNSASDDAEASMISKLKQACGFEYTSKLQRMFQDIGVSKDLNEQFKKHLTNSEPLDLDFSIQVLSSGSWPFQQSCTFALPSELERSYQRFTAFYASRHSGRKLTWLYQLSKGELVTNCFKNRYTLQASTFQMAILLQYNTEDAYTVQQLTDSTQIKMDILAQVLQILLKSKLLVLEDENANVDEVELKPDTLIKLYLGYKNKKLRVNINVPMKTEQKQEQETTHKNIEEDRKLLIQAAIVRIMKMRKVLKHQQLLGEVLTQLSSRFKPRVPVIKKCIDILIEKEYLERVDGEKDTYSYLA
Sequence (P63208 whole entry): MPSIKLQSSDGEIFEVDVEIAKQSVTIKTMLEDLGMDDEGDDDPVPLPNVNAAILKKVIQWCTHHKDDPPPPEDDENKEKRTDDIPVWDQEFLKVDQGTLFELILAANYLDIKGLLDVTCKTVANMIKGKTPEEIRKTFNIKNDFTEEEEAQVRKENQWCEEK
Sequence (P62877 whole entry): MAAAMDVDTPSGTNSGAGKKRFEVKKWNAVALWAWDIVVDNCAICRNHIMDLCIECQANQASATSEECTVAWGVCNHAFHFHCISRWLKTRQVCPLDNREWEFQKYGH
Experiment: Measurement of ubiquitinating enzyme activity (IκBα ubiquitination, time-resolved fluorescence with Eu(K)-labeled ubiquitin and XL665-labeled anti-GST antibody)
Type: biochemical
Conditions: enzyme activity inhibition test, method (1), Table 5; read-out: EVALUATION
Experimental: Method 1: Measurement of ubiquitinating enzyme activity A recombinant vector His-UBCH5b containing a polyhistidine tag (His) and UBCH5b was prepared. E. coli was transformed with the vector, the protein was expressed, and affinity purification was carried out using Ni-NTA agarose (Qiagen). […]
pIC50: −log10 of the molar value.
measuredParameter: pIC50

Recorded pIC50 (molecule CCCCC1=NN(c2ccc(C(=O)O)cc2)C(=O)/C1=C\c1ccc(N2CCC(CO)CC2)cc1 [Compound 443] ): > 5.00

// recorded pIC50 for CC1=NN(c2ccc(C(=O)O)cc2)C(=O)/C1=C\c1ccc2c(ccn2C(=O)c2ccccc2)c1 [Compound 528] : > 5.00

The reported value for COC(=O)N1CCN(c2ccc(/C=C3\C(=O)N(c4ccc(C(=O)O)cc4)N=C3c3ccc(OC)c(OC)c3)cc2)CC1 [Compound 279] in terms of pIC50 is > 5.00

Input COc1ccc(C2=NN(c3ccc(C(=O)O)cc3)C(=O)C2=Cc2ccc(-n3cncn3)cc2)cc1OC [Compound 343] . Output pIC50: > 4.40

pIC50 measured on COC(=O)N1CCN(c2ccc(/C=C3\C(=O)N(c4ccccc4)N=C3c3ccncc3)cc2)CC1 [Compound 42] = > 4.40

The molecule CC1=NN(c2ccc(C(=O)O)cc2)C(=O)/C1=C\c1nccs1 [Compound 257] showed pIC50 equal to > 4.40

The molecule listed as O=C1/C(=C\c2ccc(-c3ccccc3F)o2)C(c2ccoc2)=NN1c1ccccc1 [Compound 15] has a reported pIC50 of > 5.00

So for CC1=NN(c2ccc(C(=O)N3CCC(C(=O)O)CC3)cc2)C(=O)/C1=C\c1ccc2[nH]ccc2c1 [Compound 352] , the logged pIC50 turned out to be > 5.00

pIC50 reading for Cn1cc(-c2ccc(/C=C3\C(=O)N(c4ccc(C(=O)O)cc4)N=C3Cc3ccccc3)o2)cn1 [Compound 518] : 4.70 to 5.00

According to the records, this molecule O=C(O)c1ccc(N2N=C(c3ccccn3)/C(=C/c3ccc(N4CCCC4)cc3)C2=O)cc1 [Compound 291] displays pIC50 of 4.70 to 5.00

Recorded result, COC(=O)N1CCN(c2ccc(/C=C3\C(=O)N(c4ccccc4)N=C3C)cc2)CC1 [Compound 95] , pIC50: > 4.40

Input CC1=NN(c2cccc(C(=O)O)c2)C(=O)/C1=C\c1ccc2c(c1)OCCO2 [Compound 402] . Output pIC50: 4.70 to 5.00

GET /value?item= COCC1=NN(c2ccc(C(=O)O)cc2)C(=O)/C1=C\c1ccc2c(c1)OCCO2 [Compound 239] &field=pIC50 returns > 5.00

pIC50 reading for CC1=NN(c2ccc(S(N)(=O)=O)cc2)C(=O)/C1=C\c1cc2ccccc2o1 [Compound 168] : > 5.00

Item: COC(=O)c1ccc(COc2ccc(/C=C3\C(=O)N(c4ccc(S(N)(=O)=O)cc4)N=C3C)cc2OC)cc1 [Compound 120] | pIC50: > 5.00

Entry CC1=NN(c2ccc(S(N)(=O)=O)cc2)C(=O)C1=Cc1c[nH]c2ccc(Cl)cc12 [Compound 146] , pIC50 reported as > 5.00

---

Give measured pIC50 for each item. Keep answers brief.
target: IκBα ubiquitinating enzyme (SCF complex: ROC1, Cullin1, Skp1, His-TrCP1; with E1, UbcH5b) (Homo sapiens, UniProt P62877+P63208+Q13616+Q9Y297); construct: His (polyhistidine); made in house; host or cells: insect cells (baculovirus) for the SCF complex and His-E1; E. coli for His-UBCH5b; experiment: Measurement of ubiquitinating enzyme activity (IκBα ubiquitination, time-resolved fluorescence with Eu(K)-labeled ubiquitin and XL665-labeled anti-GST antibody); assay type: biochemical; conditions: enzyme activity inhibition test, method (1), Table 5; read-out: EVALUATION
pIC50: −log10 of the molar value.

Note to self: pIC50 recorded for COc1cc(/C=C2/C(=O)N(c3cccc(N)c3)N=C2C)ccc1O [Compound 198] was > 4.40

compound CCOC(=O)COc1ccc(/C=C2\C(=O)N(c3ccc(C(=O)O)cc3)N=C2C)cc1 [Compound 540] , pIC50 observed: > 5.00

For reference, reported pIC50 for O=C1/C(=C\c2ccc(-n3cccn3)cc2)C(c2cccnc2)=NN1c1ccccc1 [Compound 67] stands at > 4.40

The reported pIC50 of the compound CCCCC1=NN(c2cccc(C(=O)O)c2)C(=O)/C1=C\c1ccc2c(c1)OCO2 [Compound 473] was 4.70 to 5.00

---

biological target: IκBα ubiquitinating enzyme (SCF complex: ROC1, Cullin1, Skp1, His-TrCP1; with E1, UbcH5b) (Homo sapiens, UniProt P62877+P63208+Q13616+Q9Y297); construct: His (polyhistidine); made in house; host or cells: insect cells (baculovirus) for the SCF complex and His-E1; E. coli for His-UBCH5b; assay: Measurement of ubiquitinating enzyme activity (IκBα ubiquitination, time-resolved fluorescence with Eu(K)-labeled ubiquitin and XL665-labeled anti-GST antibody); type: biochemical; conditions: enzyme activity inhibition test, method (1), Table 5; read-out: EVALUATION
Field: IC50. Provide a value for each of the molecules that follow.

According to the records, this molecule CC1=NN(c2cccc(C(=O)N3CCOCC3)c2)C(=O)/C1=C\c1ccc2c(c1)OCCO2 displays IC50 of < 10 µM

Quick note, IC50 for CC1=NN(c2ccc(C(=O)NCC(C)O)cc2)C(=O)C1=Cc1ccc2c(c1)OCCO2 (centres unmarked) [Compound 398] landed at < 40 µM

Entry CC1=NN(c2cccc(S(N)(=O)=O)c2)C(=O)/C1=C\c1cc2ccccc2o1 ; IC50 = < 10 µM

The measured IC50 associated with O=C(O)c1ccc(N2N=C(C3CC3)/C(=C/c3ccc(CO)o3)C2=O)cc1 reads < 10 µM

IC50 for CC1=NN(c2ccc(C(=O)O)cc2)C(=O)/C1=C\c1ccc(N2CCCC2)cc1 is 10 to 20 µM

The measured IC50 associated with O=C1/C(=C\c2ccc(N3CCCC3)cc2)C(c2ccncc2)=NN1c1ccccc1 reads < 40 µM

Summary for this molecule, COCCC1=NN(c2cccc(C(=O)O)c2)C(=O)/C1=C\c1ccc(-c2cnn(C)c2)o1 : IC50 is 10 to 20 µM

Record summary for CC1=NN(c2cccc(S(N)(=O)=O)c2)C(=O)/C1=C\c1ccc(N2CCNCC2)cc1 : reported IC50 = 10 to 20 µM

Value of measured IC50 for the entry CC1=NN(c2ccc(S(N)(=O)=O)cc2)C(=O)C1=Cc1ccc(O)cc1 : 10 to 20 µM

For this molecule ( O=C(O)c1ccc(N2N=C(C3CC3)/C(=C/c3ccc(-n4cncn4)cc3)C2=O)cc1 ), measured IC50 is < 10 µM

Reported IC50 for COc1cc(/C=C2\C(=O)N(c3ccc(C(=O)O)cc3)N=C2C)ccc1OCC1CC1 was < 10 µM

Entry under test: CC1=NN(c2ccc(C(=O)O)cc2)C(=O)/C1=C\c1ccc(-c2ccccc2Cl)o1 . Its IC50 was < 10 µM

// IC50 lookup, molecule = O=C1/C(=C\c2ccc(-n3cccn3)cc2)C(Cc2ccccc2)=NN1c1ccccc1 , result: 10 to 20 µM

The molecule listed as O=C1/C(=C\c2ccc3c(c2)OCCO3)C(Cc2ccccc2)=NN1c1ccccc1 shows IC50 equal to 10 to 20 µM

Lab note: CC1=NN(c2cccc(C(=O)O)c2)C(=O)/C1=C\c1ccc2occc2c1 gave IC50 of < 10 µM

For record CC1=NN(c2cccc(C(=O)N3CCN(c4ccc(O)cc4)CC3)c2)C(=O)/C1=C\c1ccc2[nH]ccc2c1 the listed IC50 is < 10 µM

Recorded IC50 (molecule CC1=NN(c2ccc(C(=O)O)cc2)C(=O)/C1=C\c1ccc(-c2cccc(Cl)c2)o1 ): < 10 µM

Lookup result for CC1=NN(c2ccc(C(=O)O)cc2)C(=O)/C1=C\c1cccc(O)c1 ; measured IC50: < 10 µM

Looking up CC1=NN(c2ccc(C(=O)O)cc2)C(=O)/C1=C\c1ccc(OCC(N)=O)cc1 , I found its IC50 recorded as < 10 µM

Entry under test: O=C(O)c1ccc(N2N=C(c3ccccn3)/C(=C/c3ccc(-c4ccccc4F)o3)C2=O)cc1 . Its IC50 was < 10 µM

Lab note: measured IC50 of Cn1cc(-c2ccc(/C=C3\C(=O)N(c4cccc(C(=O)O)c4)N=C3c3ccoc3)o2)cn1 was < 10 µM

Lookup result for CCCCC1=NN(c2ccc(C(=O)O)cc2)C(=O)/C1=C\c1ccc(OCc2ccccc2)c(OC)c1 ; measured IC50: < 10 µM

Record CC1=NN(c2ccc(C(=O)N3CCOCC3)cc2)C(=O)/C1=C\c1ccc2[nH]ccc2c1 . Reported IC50: < 10 µM

Lab book: IC50 of CC1=NN(c2ccc(C(=O)O)cc2)C(=O)/C1=C\c1cccs1 noted as < 40 µM

IC50 in this record for COC(=O)N1CCN(c2ccc(/C=C3\C(=O)N(c4ccccc4)N=C3c3cccnc3)cc2)CC1 : < 40 µM

CC1=NN(c2cccc(S(N)(=O)=O)c2)C(=O)/C1=C\c1ccc(-n2cccn2)cc1 yielded IC50 of 10 to 20 µM

// field: IC50; key: CCOC(=O)c1ccccc1-c1ccc(/C=C2\C(=O)N(c3ccc(C(=O)O)cc3)N=C2C)o1 ; value = < 10 µM

Reported IC50 of COCC1=NN(c2ccc(C(=O)O)cc2)C(=O)/C1=C\c1ccc(N2CCN(C(=O)OC)CC2)cc1 : < 10 µM

Lookup result for COc1ccc(C2=NN(c3ccccc3)C(=O)C2=Cc2ccc3c(c2)OCCO3)cc1 ; measured IC50: < 40 µM

GET /value?item= O=C(O)c1ccc(N2N=C(c3ccncc3)/C(=C/c3ccc(CO)o3)C2=O)cc1 &field=IC50 returns < 10 µM

Reported IC50 for O=C1/C(=C\c2ccc(CO)o2)C(c2ccccn2)=NN1c1ccccc1 was < 40 µM

For record O=C(O)c1ccc(N2N=C(C3CC3)/C(=C/c3ccc4ccccc4c3)C2=O)cc1 the listed IC50 is < 10 µM
